test: activity coefficient (dimensionless); of the first substance listed, at infinite dilution; xn = mol fraction of the nth substance listed; conditions: 403.15 K; 101 kPa; Liquid; Chromatography; x1 = 0
activity coefficient vs 0.3: at or above is Y, below is N.

compound="C=CCCCCCC [oct-1-ene] + CCCCCCCCCCCCCCCCCCC(CCCCCCCCCCCCCCCCCC)CCCCC(CCCCCCCCCCCCCCCCCC)CCCCCCCCCCCCCCCCCC" class=Y
compound="CCC(C)C(C)CC (configuration not stated) [3,4-dimethylhexane] + CCCCCCCCCCCCCCCCCCC(CCCCCCCCCCCCCCCCCC)CCCCC(CCCCCCCCCCCCCCCCCC)CCCCCCCCCCCCCCCCCC" class=Y
compound="C#CCCCCCC [1-octyne] + CCCCCCCCCCCCCCCCCCC(CCCCCCCCCCCCCCCCCC)CCCCC(CCCCCCCCCCCCCCCCCC)CCCCCCCCCCCCCCCCCC" class=Y
compound="C1CCCCC1 [cyclohexane] + CCCCCCCCCCCCCCCCCCC(CCCCCCCCCCCCCCCCCC)CCCCC(CCCCCCCCCCCCCCCCCC)CCCCCCCCCCCCCCCCCC" class=N
compound="CCc1ccccc1 [ethylbenzene] + CCCCCCCCCCCCCCCCCCC(CCCCCCCCCCCCCCCCCC)CCCCC(CCCCCCCCCCCCCCCCCC)CCCCCCCCCCCCCCCCCC" class=Y
compound="C1=CCCCC1 [cyclohexene] + CCCCCCCCCCCCCCCCCCC(CCCCCCCCCCCCCCCCCC)CCCCC(CCCCCCCCCCCCCCCCCC)CCCCCCCCCCCCCCCCCC" class=N
compound="Cc1ccccc1 [toluene] + CCCCCCCCCCCCCCCCCCC(CCCCCCCCCCCCCCCCCC)CCCCC(CCCCCCCCCCCCCCCCCC)CCCCCCCCCCCCCCCCCC" class=N
compound="C[C@@H]1CCCC[C@@H]1C [cis-1,2-dimethylcyclohexane] + CCCCCCCCCCCCCCCCCCC(CCCCCCCCCCCCCCCCCC)CCCCC(CCCCCCCCCCCCCCCCCC)CCCCCCCCCCCCCCCCCC" class=N
compound="CCCc1ccccc1 [propylbenzene] + CCCCCCCCCCCCCCCCCCC(CCCCCCCCCCCCCCCCCC)CCCCC(CCCCCCCCCCCCCCCCCC)CCCCCCCCCCCCCCCCCC" class=Y
compound="C1CCCCCC1 [cycloheptane] + CCCCCCCCCCCCCCCCCCC(CCCCCCCCCCCCCCCCCC)CCCCC(CCCCCCCCCCCCCCCCCC)CCCCCCCCCCCCCCCCCC" class=N
compound="C1CCCCCCC1 [cyclooctane] + CCCCCCCCCCCCCCCCCCC(CCCCCCCCCCCCCCCCCC)CCCCC(CCCCCCCCCCCCCCCCCC)CCCCCCCCCCCCCCCCCC" class=N
compound="CCCCCCCCCCCC [dodecane] + CCCCCCCCCCCCCCCCCCC(CCCCCCCCCCCCCCCCCC)CCCCC(CCCCCCCCCCCCCCCCCC)CCCCCCCCCCCCCCCCCC" class=Y
compound="c1ccc2ccccc2c1 [naphthalene] + CCCCCCCCCCCCCCCCCCC(CCCCCCCCCCCCCCCCCC)CCCCC(CCCCCCCCCCCCCCCCCC)CCCCCCCCCCCCCCCCCC" class=Y
compound="CCC(C)CC(C)C (configuration not stated) [2,4-dimethylhexane] + CCCCCCCCCCCCCCCCCCC(CCCCCCCCCCCCCCCCCC)CCCCC(CCCCCCCCCCCCCCCCCC)CCCCCCCCCCCCCCCCCC" class=Y
compound="C#CCCCCCCCC [1-decyne] + CCCCCCCCCCCCCCCCCCC(CCCCCCCCCCCCCCCCCC)CCCCC(CCCCCCCCCCCCCCCCCC)CCCCCCCCCCCCCCCCCC" class=Y
compound="CC1CCCCC1 [methylcyclohexane] + CCCCCCCCCCCCCCCCCCC(CCCCCCCCCCCCCCCCCC)CCCCC(CCCCCCCCCCCCCCCCCC)CCCCCCCCCCCCCCCCCC" class=N
compound="CC(C)C(C)C(C)C [2,3,4-trimethylpentane] + CCCCCCCCCCCCCCCCCCC(CCCCCCCCCCCCCCCCCC)CCCCC(CCCCCCCCCCCCCCCCCC)CCCCCCCCCCCCCCCCCC" class=Y
compound="CC#CCCC [2-hexyne] + CCCCCCCCCCCCCCCCCCC(CCCCCCCCCCCCCCCCCC)CCCCC(CCCCCCCCCCCCCCCCCC)CCCCCCCCCCCCCCCCCC" class=Y
compound="CCCCCCCC [octane] + CCCCCCCCCCCCCCCCCCC(CCCCCCCCCCCCCCCCCC)CCCCC(CCCCCCCCCCCCCCCCCC)CCCCCCCCCCCCCCCCCC" class=Y
compound="C1C2CC3CC1CC(C2)C3 [adamantane] + CCCCCCCCCCCCCCCCCCC(CCCCCCCCCCCCCCCCCC)CCCCC(CCCCCCCCCCCCCCCCCC)CCCCCCCCCCCCCCCCCC" class=Y
compound="C[C@@H]1CCCC[C@H]1C [trans-1,2-dimethylcyclohexane] + CCCCCCCCCCCCCCCCCCC(CCCCCCCCCCCCCCCCCC)CCCCC(CCCCCCCCCCCCCCCCCC)CCCCCCCCCCCCCCCCCC" class=N
